# Target Desc: T1, alphaVbeta3 integrin, native human, on rhabdomyosarcoma (RD) cells and on human umbilical vein endothelial … (human, UniProt P06756 31-1048; P05106 27-788)
# T1 construct: whole, on cells; also called αVβ3; native human β3
# T1 sequence (P06756 31-1048, chain 1 of 2): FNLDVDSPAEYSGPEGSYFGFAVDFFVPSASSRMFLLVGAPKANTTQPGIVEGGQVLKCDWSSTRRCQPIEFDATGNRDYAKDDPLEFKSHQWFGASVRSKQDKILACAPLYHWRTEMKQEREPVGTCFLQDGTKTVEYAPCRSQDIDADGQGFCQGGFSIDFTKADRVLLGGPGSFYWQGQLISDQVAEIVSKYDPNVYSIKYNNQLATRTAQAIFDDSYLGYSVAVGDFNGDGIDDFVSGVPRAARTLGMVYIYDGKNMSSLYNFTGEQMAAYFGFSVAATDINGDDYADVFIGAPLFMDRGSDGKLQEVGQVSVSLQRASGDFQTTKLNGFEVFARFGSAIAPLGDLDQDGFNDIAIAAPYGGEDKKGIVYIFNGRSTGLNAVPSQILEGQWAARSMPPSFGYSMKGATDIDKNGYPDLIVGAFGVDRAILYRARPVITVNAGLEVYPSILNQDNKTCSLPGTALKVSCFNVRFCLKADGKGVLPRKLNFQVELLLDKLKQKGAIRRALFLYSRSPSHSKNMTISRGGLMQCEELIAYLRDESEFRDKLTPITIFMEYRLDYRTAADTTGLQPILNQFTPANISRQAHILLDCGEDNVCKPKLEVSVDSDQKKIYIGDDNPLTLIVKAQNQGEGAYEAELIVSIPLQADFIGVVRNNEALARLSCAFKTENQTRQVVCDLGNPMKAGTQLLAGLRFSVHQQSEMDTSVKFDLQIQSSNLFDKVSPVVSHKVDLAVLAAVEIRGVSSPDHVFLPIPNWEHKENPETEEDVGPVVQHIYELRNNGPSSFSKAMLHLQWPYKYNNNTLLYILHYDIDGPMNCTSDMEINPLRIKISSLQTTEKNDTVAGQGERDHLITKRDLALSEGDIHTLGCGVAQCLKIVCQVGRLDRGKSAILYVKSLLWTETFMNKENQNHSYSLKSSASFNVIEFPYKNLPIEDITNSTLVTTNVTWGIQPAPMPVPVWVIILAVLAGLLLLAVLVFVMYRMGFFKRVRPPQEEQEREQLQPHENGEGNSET
# T1 sequence (P05106 27-788, chain 2 of 2): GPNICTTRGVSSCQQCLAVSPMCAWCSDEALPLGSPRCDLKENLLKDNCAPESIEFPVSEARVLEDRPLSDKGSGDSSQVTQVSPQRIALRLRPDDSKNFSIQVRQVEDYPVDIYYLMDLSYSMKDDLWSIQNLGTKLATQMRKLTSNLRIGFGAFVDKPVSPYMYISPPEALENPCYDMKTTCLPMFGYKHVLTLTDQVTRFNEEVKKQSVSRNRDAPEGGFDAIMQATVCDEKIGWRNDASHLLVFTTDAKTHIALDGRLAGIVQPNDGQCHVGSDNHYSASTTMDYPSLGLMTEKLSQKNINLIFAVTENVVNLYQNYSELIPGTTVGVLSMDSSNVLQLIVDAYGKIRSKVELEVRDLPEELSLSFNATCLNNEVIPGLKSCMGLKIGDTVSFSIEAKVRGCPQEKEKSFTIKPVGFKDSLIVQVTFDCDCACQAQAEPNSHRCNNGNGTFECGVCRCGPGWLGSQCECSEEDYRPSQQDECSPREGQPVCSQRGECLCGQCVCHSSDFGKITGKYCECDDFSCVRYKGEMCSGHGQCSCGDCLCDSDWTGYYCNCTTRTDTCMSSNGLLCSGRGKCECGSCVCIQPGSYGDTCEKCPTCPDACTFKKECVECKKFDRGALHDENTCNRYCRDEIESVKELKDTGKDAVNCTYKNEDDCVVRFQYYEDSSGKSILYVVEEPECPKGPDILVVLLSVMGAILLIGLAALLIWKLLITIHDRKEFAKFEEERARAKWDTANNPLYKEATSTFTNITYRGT
# Method Description: flow cytometry on RD cells expressing alphaVbeta3, PE anti-human IgG; EC50 = concentration where 50% of cells gated in R2
Quick reference: EC50 of the listed items.
# unit: nM | format: bare number

Here are 2 binders together with their reported answers.
[[record]]
binder = "VH1/Vκ2 Composite Human Antibody variant of HLMC (antibody, human IgG1, kappa, V domains shown, also called VH1/Vk2) VH: QAQLVQSGPELKKPGASVKVSCKASGYLFSNSWMNWVKQRPGAGLEWIGRIFPGDGDTNYNGKFKGRATITADKSTSTAYMELSSLRSEDSAVYFCARWGLTRDRRLYLDYWGQGTTVTVSS VL: DIVMTQSPDSLAVSLGERATINCKSSQSLLYSSNQKNYLAWYQQKPGQAPRLLIYWASTRESGVPDRFTGSGSGTDFTLTISSLQAEDVAVYYCKQYYTYPLTFGQGTKLEIKR"
measure = "EC50"
unit_info = "nM"
endpoint_result = 5.43

[[record]]
binder = "VH4/Vκ3 Composite Human Antibody variant of HLMC (antibody, human IgG1, kappa, V domains shown, also called VH4/Vk3) VH: QAQLVQSGAEVKKPGASVKVSCKASGYLFSNSWMNWVKQRRGAGLEWIGRIFPGDGDTNYNGKFKGRVTITADKSTSTAYMELSSLRSEDTAVYFCARWGLTRDRRLYLDYWGQGTTVTVSS VL: DIVMTQSPDSLAVSLGERATINCKSSQSLLYSSNQKNYLAWYQQKPGQAPRLLIYWASTRESGVPDRFSGSGSGTDFTLTISSLQAEDVAVYYCKQYYTYPLTFGQGTKLEIKR"
measure = "EC50"
unit_info = "nM"
endpoint_result = 2.03


Let us move to another entry and its EC50.
Asked: Any idea what its EC50 is? The binder is VH2/Vκ2 Composite Human Antibody variant of HLMC (antibody, human IgG1, kappa, V domains shown, also called VH2/Vk2) VH: QAQLVQSGPEVKKPGASVKVSCKASGYLFSNSWMNWVKQRPGAGLEWIGRIFPGDGDTNYNGKFKGRATITADKSTSTAYMELSSLRSEDTAVYFCARWGLTRDRRLYLDYWGQGTTVTVSS VL: DIVMTQSPDSLAVSLGERATINCKSSQSLLYSSNQKNYLAWYQQKPGQAPRLLIYWASTRESGVPDRFTGSGSGTDFTLTISSLQAEDVAVYYCKQYYTYPLTFGQGTKLEIKR
Given back: 4.92
